Numbers sourced from the supplement of paper PMC10307832.

- Tested on: NCI-H1944
- Procedure Text: relative viability (nuclei count vs DMSO), 5 days (fraction); higher = more cells survive
- Conditions Used: first compound 0.01 µM
Quantity Name: relative viability

CC(C)Oc1cc(Nc2nc(N[C@@H](C)c3ccc(F)cn3)ncc2Cl)n[nH]1 [AZ23] + Nc1nc2[nH]cc(CCc3ccc(C(=O)N[C@@H](CCC(=O)O)C(=O)O)cc3)c2c(=O)[nH]1 [Pemetrexed] (partner 0.2 µM)	0.314

Enquiry: Any idea what relative viability came out for CC(C)Oc1cc(Nc2nc(N[C@@H](C)c3ccc(F)cn3)ncc2Cl)n[nH]1 [AZ23] + CC(=O)c1c(C)c2cnc(Nc3ccc(N4CCNCC4)cn3)nc2n(C2CCCC2)c1=O [Palbociclib] (partner 0.5 µM) on NCI-H1944?
Return: 0.304

* * *

- Tested on: EPLC-272H
- Procedure Text: relative viability (nuclei count vs DMSO), 5 days (fraction); higher = more cells survive
- Conditions Used: first compound 0.04 µM
Known relative viability of a selection of compounds
Reply with just the number.

C[C@@H]1CN(CC(=O)Nc2ccc3c(c2)Cc2cccc(-c4cc(=O)cc(N5CCOCC5)o4)c2S3)C[C@H](C)O1 + Cc1nc(NC(=O)N2CCC[C@H]2C(N)=O)sc1-c1ccnc(C(C)(C)C(F)(F)F)c1 [Alpelisib] (partner 2 µM)	0.928

Now turn to the next compound.
Enquiry: Report relative viability for COc1cc(N2CCC(C(N)=O)CC2)ccc1Nc1nc(N)c(Cl)c(Nc2ccccc2S(=O)(=O)C(C)C)n1 [HG-5-88-01] + CC(=O)c1c(C)c2cnc(Nc3ccc(N4CCNCC4)cn3)nc2n(C2CCCC2)c1=O [Palbociclib] (partner 0.5 µM) please.
Return: 0.342

* * *

- System: NCI-H3122
- Procedure Text: relative viability (nuclei count vs DMSO), 5 days (fraction); higher = more cells survive
- Conditions Used: first compound 2.53 µM
Known relative viability of a selection of compounds
Reply with just the number.

CCCCCCCCCCCC1=C(O)C(=O)C=C(O)C1=O [Embelin] + NC(=O)Nc1cc(-c2cccc(F)c2)sc1C(=O)N[C@H]1CCCNC1 [AZD7762] (partner 0.2 µM)	1.06
CCCCCCCCCCCC1=C(O)C(=O)C=C(O)C1=O [Embelin] + COc1cc2c(Oc3ccc(NC(=O)C4(C(=O)Nc5ccc(F)cc5)CC4)cc3F)ccnc2cc1OCCCN1CCOCC1 [Foretinib] (partner 0.25 µM)	0.951
CCCCCCCCCCCC1=C(O)C(=O)C=C(O)C1=O [Embelin] + CC(=O)c1c(C)c2cnc(Nc3ccc(N4CCNCC4)cn3)nc2n(C2CCCC2)c1=O [Palbociclib] (partner 0.5 µM)	0.175
CCCCCCCCCCCC1=C(O)C(=O)C=C(O)C1=O [Embelin] + C[C@]1(O)C[C@@H](c2nc(-c3ccc4ccc(-c5ccccc5)nc4c3)c3c(N)nccn32)C1 [Linsitinib] (partner 1 µM)	1.01
CCCCCCCCCCCC1=C(O)C(=O)C=C(O)C1=O [Embelin] + O=C(CCCCCCC(=O)Nc1ccccc1)NO [Vorinostat] (partner 1 µM)	1.01

Now turn to the next compound.
Enquiry: Report relative viability for CCCCCCCCCCCC1=C(O)C(=O)C=C(O)C1=O [Embelin] + Cc1cc(Nc2cc(N3CCN(C)CC3)nc(Sc3ccc(NC(=O)C4CC4)cc3)n2)n[nH]1 [Tozasertib] (partner 0.1 µM) please.
Return: 0.424
